Origin of the recorded values: patent US8133887B2

Target: human CB1 receptor (Homo sapiens, UniProt P21554)
Sequence (P21554 whole entry): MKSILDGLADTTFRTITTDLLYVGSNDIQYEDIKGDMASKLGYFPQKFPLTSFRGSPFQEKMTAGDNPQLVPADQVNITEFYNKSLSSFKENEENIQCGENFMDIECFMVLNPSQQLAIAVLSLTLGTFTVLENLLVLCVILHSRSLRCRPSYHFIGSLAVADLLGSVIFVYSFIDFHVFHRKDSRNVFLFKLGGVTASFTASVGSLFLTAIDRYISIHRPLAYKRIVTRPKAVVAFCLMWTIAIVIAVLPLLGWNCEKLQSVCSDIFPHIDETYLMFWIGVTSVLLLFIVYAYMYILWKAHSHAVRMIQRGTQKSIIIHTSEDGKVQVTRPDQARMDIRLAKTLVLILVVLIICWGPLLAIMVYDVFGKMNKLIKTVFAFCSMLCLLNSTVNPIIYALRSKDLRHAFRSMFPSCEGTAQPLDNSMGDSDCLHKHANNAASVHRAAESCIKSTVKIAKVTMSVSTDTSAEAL
quantity-measured: pKi
Give bare numbers, as −log10 of the molar value.

Prompt line: Query (compound): CCCCCc1cc(O)c2c(c1)OC(F)(F)C1CCCCC21 (stereo not shown) ; field requested: pKi
Response line: 5.72

---

Molecular target: human CB2 receptor (Homo sapiens, UniProt P34972)
Sequence (P34972 whole entry): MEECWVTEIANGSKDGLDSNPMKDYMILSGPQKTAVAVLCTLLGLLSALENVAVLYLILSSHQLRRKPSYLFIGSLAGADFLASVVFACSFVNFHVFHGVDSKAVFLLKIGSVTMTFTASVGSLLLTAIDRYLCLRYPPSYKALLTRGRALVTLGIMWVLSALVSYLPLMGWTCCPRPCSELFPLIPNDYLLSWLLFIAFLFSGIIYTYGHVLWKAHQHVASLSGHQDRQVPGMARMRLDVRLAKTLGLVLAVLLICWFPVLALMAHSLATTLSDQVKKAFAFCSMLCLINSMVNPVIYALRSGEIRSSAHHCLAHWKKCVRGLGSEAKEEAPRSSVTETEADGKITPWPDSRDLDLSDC
quantity-measured: pIC50
Answers are plain numbers, as −log10 of the molar value.

Prompt line: Need pIC50 of CCCCCc1cc(O)c2c(c1)OC(F)(F)C1CCCCC21 (stereo not shown) [Compound Ia] , thanks.
Response line: 5.85

---

Target: human CB2 receptor (Homo sapiens)
quantity-measured: Ki (nM)
One number for each entry, in nM.

Prompt line: Report Ki for CCCCCc1cc(O)c2c(c1)OC(F)(F)C1CCCCC21 (stereo not shown) [Compound Ia] please.
Response line: 920
